Target desc: yeast α-glucosidase (Saccharomyces cerevisiae, UniProt P53341)
Construct: purchased Sigma-Aldrich Co. LLC (St. Louis, MO)
Sequence (P53341 whole entry): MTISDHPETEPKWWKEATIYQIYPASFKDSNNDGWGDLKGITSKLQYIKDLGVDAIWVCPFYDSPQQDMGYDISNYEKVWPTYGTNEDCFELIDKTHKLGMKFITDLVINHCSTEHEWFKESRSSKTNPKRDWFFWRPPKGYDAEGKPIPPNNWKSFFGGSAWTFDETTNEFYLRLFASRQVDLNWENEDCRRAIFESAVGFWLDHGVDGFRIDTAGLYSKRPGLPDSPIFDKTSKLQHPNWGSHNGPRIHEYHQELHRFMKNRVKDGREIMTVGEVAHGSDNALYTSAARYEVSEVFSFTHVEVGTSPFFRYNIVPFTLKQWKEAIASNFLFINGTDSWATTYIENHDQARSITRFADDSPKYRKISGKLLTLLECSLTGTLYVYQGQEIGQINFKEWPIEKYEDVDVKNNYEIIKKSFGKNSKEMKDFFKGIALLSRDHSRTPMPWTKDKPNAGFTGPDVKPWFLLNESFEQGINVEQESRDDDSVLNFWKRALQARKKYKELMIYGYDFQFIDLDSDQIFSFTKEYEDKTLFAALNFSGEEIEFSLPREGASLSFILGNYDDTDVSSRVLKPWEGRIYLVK
Method: Inhibitory kinetic analysis (Michaelis–Menten, Lineweaver–Burk plots)
Assay type: biochemical
Value kind: pKi
Scale: pKi equals -log10([C]), with [C] in mol/L.

INSERT INTO assay_data (structure_string, target_desc, observed_result) VALUES
  ('O=c1c(O)c(-c2ccc(O)c(O)c2)oc2ccccc12', 'yeast α-glucosidase (Saccharomyces cerevisiae, UniProt P53341)', 4.39),
  ('O=c1c(O)c(-c2ccc(O)c(O)c2)oc2c(O)c(O)ccc12', 'yeast α-glucosidase (Saccharomyces cerevisiae, UniProt P53341)', 5.19);

Turning now to a further compound:
Exercise: Fill in the blank: the reported pKi of O=c1cc(-c2ccc(O)cc2)oc2cccc(O)c12 is ____.
Key: 3.90
